Numbers sourced from a protein production outcome set (Wang et al. 2014).

# method summary: label from the status in PepcDB records
reported endpoint: protein production

- MAARLLFRRSSQILRSIQRNPQISSSFESPPCPIFHSLTTASPDPSRLSSLTFLRSLSIARRGPTRPKKIDIGAKARQMQNRRLWTYALTFSCIAGFVVIVLNQFQDQLVFYLTPSDAMEKFAENPTKNKFRLGGLVLEGSVAQPAASQEMEFVITDLITDILVRYKGSLPDLFREGHSVVVEGFIKPYTDEVRKEVSTKPISKKARNLDCFFSATEVLAKHDEKYMPQEVAAAIEKNKKIIEAAATEQAAEVAAS: failed
- MITVVIASRLREDRLDYLTAMHASLTRQSVPWEAVIALDGASPDRLPRQLAQDPRVDTLVLPRPVGAACARNLALTQVRTRYVNWADDDDEFTDDAMSVRLETLESTGVGWCAGWSEDQFRDGSTRLWRCPTPPGRHEAGDVWTFWKSPADTIPIGPTTILARTDLVRAAPMGGLVQGEDYCAALGVTALAPGILLPLPVYRYRKWGGQMTAQDGYDQLETAAREHAWAYGRSLRAVLRGGEDLVHVLEHHHHHH: failed

====

# method summary: label from the status in PepcDB records
reported endpoint: protein production

Check out these entries, answers already filled in.
- MHLSLMISRHYINRMKLSLMHISILAGIPEEFKVNIYIGWLFKLIPLIMGLICIALGGFVLESSGQSEYFVAGHVLISLAAICLALFTTAFIIISQLTRGVNTFYNTLFPIIGYAGSIITMIWGWALLAGNDVMADEFVAGHVIFGVGMIAACVSTVAASSGHFLLIPKNAAGSKSDGTPVQAYSSLIGNCLIAVPVLLTLLGFIWSITLLRSADITPHYVAGHVLLGLTAICACLIGLVATIVHQTRNTFSTKEHWLWCYWVIFLGSITVLQGIYVLVSSDASARLAPGIILICLGMICYSIFSKVWLLALVWRRTCSLANRIPMIPVFTCLFCLFLASFLAEMAQTDMGYFIPSRVLVGLGAVCFTLFSIVSILEAGSAKK: failed
- MTTPEGGARKPRIGIMGEFSAGKSTLSNLLLGQRILPEQVTATRLPPVWIVQGDKPAQRAALDGSLHPMSLVDLEEISLEETLYVKIGIDAPVLDECDLIDFPGISDPNMPSEVWERMLAEVDSVLWCTHATQAWRQSEAAAWGMVPEAVRQRSLLLITRFDKLTTPLDKLRVQTRVARETEGLFAGVCPISLTEALAAAPDSPEWEASGAETFADALEAVVRAAACGGLPEAMPAQTQLTAPAAPEPAEPSTSAPQPAPGRVMPRRVRPKGETRTPRPSARPQAADQDLSALRREMQET: failed
- MSEPLLHLTERSLWDAARDRGTYEMATRGRTLQEEGFIHCSLRHQLPGVAALLYGSRAGSDELVVLVVDAERLAAPVRYEAVGPGGEEFPHVYGPIPVSAVVDVEVWTGGEAASALEHHHHHH: not failed
- MLRYSLLVLLGACSYGILAIFVKLAYAEGFSLGEVIGSQYLFGWIILLAITLLFSRHRVPLKQALLLFVAGTSASFTGIFYYASLKTVPASIAIILLFQFVWVGIIIEAVATKTLPSREKVISVIFLLVGTFLSSGLLEQSAGAFDTTGIILGLLSAVTFATYIFVSGKVAVEVPSLPRGVLLMTGALTLVMIVFPPTFIFNGAISQGLWKYGLGLGTFSIVIPSIAFTIGIPKIGSGLATILGAAELPVTTIMSVFVLKEAVLSSQWFGVSLILIGIAIPQIAYAMRGRYRKHHTHKKVAA: failed

Ask: Which value of protein production has been reported for `MSGVTSEPIAMDATRFQHTPYYCEENVYLLCKTLCENGVAEATCSDLFVVFISNEKKQVPLWHQKASTRADGVVLWDYHVICVQRKKESDSEPLVWDLDSTLPFPSPLASYVTETIQPSFQLFAEYQRFFRIVHAPLFFKHFASDRRHMKEPDGSWTAQPPPYEPIVAQDGILHNLSEYIAMSGADTLSSLDPETVTAAISQKLGVVVSHTQLQDLFTKLP` in the records?
Reply: failed

Ask: # input sequence: `MKPSKYSVKAQGHGSSYMPMEVTLSKDKIEDINVDASGETRGVADEVFNRLPKLIVDNQTLNIDAVSGATISSHGVIDGVAQTINEAGGNSEEWKRRAKPRKVLLKKTKNMILMLEHHHHHH` ; wanted: its protein production
Reply: not failed

Ask: Item under review: `MFIGGAIISFLFLFGYMWKEAHSNRIRHVTLSFPHFPDNGPPLTIFFISDIHRRSVSCRMLETVKGKADLVVIGGDLAEKGVPAARVRENVRRLQTVAPVYFVWGNNDDEVDYDLQSLLEEERVYVLKNKAEVWEHGGVPIALIGVGDVSRKEADIARALEHVPPESFRILACHNPAIIARLEDEQHISLVLSGHTHGGQIRLFSFGLYEKGGLKWHGNTALFTSNGYGTTGVPLRLGAPAETHLIKIVPGKLATEKKCLSKTGKTMLEHHHHHH` . Reported protein production?
Reply: failed
